Molecular target: Acyl-protein thioesterase 2 (Homo sapiens)
Assay: blockade of human LYPLA2 probe labeling – gel-based competitive ABPP, fluorescence, assay provider, late-stage follow-up (AID 652029);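 note: loss of FP-Rh probe labeling of the LYPLA2 gel band measured as band density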
Settings: rhLYPLA2 in mouse brain proteome, gel ABPP FP-Rh; at 20 µM; hits give high values
Some of the results follow.
The label depends only on inhibition: true if it is at least 50%, false if it is smaller.

Before answering, review these 3 worked examples.
O=C(CCCN1C(=O)c2cccc3cccc(c23)C1=O)N1CCN(Cc2ccc3c(c2)OCO3)CC1; false
CC(=O)c1ccc(N2CCN(C(=O)C3CCN(S(=O)(=O)c4ccc5c(c4)CC(C)N5C(=O)C4CC4)CC3)CC2)cc1 (stereo not given); true
CCC(=O)c1ccc(OCC(O)CN2CCN(c3cccc(C(F)(F)F)c3)CC2)cc1 (stereo not given); false

Query block: API: above_or_equal(metric=inhibition, cutoff=50%) for item O=C1C2CCCN2C(=O)N1CCCCN1CCN(c2cccc(C(F)(F)F)c2)CC1 (stereo not given)
Result block: false
